Target: Wild-type PRC2/EZH2 (Homo sapiens)
Sequence (Q15910 whole entry): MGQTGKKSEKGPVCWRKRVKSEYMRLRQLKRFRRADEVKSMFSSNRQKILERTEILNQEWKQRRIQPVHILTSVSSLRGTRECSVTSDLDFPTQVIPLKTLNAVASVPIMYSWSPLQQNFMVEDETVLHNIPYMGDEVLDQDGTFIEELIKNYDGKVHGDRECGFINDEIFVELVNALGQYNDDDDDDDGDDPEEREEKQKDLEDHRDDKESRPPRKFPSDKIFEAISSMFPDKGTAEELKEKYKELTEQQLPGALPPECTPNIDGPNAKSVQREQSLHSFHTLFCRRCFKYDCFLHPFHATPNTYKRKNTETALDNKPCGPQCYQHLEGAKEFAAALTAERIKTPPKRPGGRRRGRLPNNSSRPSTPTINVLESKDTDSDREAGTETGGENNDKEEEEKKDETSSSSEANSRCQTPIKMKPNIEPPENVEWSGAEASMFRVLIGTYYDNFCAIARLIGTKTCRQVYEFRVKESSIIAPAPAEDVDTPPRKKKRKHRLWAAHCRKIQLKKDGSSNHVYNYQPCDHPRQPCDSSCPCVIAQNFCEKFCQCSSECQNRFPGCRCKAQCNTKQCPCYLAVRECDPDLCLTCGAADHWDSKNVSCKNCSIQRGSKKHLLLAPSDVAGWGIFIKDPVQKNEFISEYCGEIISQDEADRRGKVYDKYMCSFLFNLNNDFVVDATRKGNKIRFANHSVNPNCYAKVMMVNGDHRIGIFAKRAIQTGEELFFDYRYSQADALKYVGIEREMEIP
Sequence (Q6ZN18 whole entry partner): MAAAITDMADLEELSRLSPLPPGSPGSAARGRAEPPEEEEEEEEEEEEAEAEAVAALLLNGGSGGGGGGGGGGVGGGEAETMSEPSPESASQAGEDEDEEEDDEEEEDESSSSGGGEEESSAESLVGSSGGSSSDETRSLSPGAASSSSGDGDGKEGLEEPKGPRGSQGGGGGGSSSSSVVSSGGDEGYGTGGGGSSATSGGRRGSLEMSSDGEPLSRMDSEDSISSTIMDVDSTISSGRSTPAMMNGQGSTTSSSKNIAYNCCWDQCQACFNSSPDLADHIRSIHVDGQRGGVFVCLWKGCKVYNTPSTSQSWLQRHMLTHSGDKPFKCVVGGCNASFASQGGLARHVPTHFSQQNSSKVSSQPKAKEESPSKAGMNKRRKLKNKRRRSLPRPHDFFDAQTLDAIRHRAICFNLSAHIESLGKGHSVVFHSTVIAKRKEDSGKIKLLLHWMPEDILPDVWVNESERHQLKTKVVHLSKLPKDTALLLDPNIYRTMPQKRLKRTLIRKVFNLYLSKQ
Sequence (O75530 whole entry partner): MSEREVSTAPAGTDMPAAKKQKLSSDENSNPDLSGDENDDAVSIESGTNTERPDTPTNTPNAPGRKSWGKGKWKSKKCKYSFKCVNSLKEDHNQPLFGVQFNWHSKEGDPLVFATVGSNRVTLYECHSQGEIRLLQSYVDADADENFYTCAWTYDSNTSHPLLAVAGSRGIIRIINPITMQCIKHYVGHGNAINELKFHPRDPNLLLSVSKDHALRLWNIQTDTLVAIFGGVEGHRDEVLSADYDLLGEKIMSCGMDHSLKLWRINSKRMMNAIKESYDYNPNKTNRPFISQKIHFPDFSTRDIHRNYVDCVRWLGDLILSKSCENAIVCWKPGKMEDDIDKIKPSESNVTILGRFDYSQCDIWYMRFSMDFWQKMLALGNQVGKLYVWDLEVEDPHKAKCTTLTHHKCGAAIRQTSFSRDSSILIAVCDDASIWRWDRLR
Sequence (Q09028 whole entry partner): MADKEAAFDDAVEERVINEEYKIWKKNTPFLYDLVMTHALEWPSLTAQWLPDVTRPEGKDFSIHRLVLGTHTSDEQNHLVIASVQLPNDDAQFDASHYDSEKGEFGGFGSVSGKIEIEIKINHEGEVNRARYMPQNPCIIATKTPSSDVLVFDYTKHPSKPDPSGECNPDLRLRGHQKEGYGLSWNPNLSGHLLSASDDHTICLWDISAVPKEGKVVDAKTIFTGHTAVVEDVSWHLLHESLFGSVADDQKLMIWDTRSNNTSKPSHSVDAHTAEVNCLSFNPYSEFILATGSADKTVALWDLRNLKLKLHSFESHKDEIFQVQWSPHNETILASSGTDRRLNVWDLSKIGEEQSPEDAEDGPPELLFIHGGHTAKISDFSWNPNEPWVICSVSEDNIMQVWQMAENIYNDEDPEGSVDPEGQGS
Sequence (Q15022 whole entry partner): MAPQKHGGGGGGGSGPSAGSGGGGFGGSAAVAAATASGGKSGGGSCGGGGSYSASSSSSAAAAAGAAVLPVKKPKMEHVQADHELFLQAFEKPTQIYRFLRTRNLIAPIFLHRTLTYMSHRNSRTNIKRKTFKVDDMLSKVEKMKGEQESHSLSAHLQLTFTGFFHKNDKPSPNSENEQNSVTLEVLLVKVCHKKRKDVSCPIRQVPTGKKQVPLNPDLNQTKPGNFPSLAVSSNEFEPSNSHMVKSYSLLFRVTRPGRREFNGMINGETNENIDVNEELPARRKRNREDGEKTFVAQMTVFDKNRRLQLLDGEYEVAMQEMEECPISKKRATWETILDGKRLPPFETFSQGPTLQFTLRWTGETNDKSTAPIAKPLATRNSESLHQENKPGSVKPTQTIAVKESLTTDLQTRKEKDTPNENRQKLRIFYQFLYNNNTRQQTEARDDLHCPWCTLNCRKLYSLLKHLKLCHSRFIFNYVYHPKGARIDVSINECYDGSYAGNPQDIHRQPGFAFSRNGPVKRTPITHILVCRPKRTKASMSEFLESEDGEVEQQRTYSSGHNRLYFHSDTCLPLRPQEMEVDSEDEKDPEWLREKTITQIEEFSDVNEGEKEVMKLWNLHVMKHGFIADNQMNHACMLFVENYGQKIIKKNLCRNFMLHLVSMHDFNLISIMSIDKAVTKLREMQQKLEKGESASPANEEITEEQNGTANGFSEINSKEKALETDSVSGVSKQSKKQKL
Experiment: PRC2/EZH2 HTRF enzyme inhibition test
Conditions: human recombinant PRC2 complex, 30 μM SAM, 10 μM biotin-H3 (21-44) peptide
pIC50: −log10 of the molar value.
Quick list: pIC50 per entry.
MEASURE_NAME: pIC50

# MOLECULE, EXPERIMENTAL_RESULT
measured = [
    ("CCN(c1cc2ccn3c2c(c1Cl)C(=O)N(Cc1c(OC)cc(C)[nH]c1=O)CC3)C1COC1 [Compound 2]", 8.42),
    ("COc1cc(C)[nH]c(=O)c1CN1CCn2ccc3cc(-c4c(C)cnn4C)c(Cl)c(c32)C1=O [Compound 5]", 6.60),
    ("COc1cc(C)[nH]c(=O)c1CN1CCn2ccc3cc(-c4c(C)noc4C)c(C)c(c32)C1=O [Compound 15]", 7.75),
    ("COc1cc(C)[nH]c(=O)c1CN1CCn2ccc3cc(-c4c(C)nn(C)c4C)c(Cl)c(c32)C1=O [Compound 4]", 5.60),
    ("COc1cc(C)[nH]c(=O)c1CN1CCN2CCc3cc(-c4c(C)noc4C)c(Cl)c(c32)C1=O [Compound 3]", 7.70),
    ("COc1cc(C)[nH]c(=O)c1CN1CCn2ccc3cc([C@H](OC)C4COC4)c(Cl)c(c32)C1=O [Compound 10]", 8.14),
    ("COc1cc(C)[nH]c(=O)c1CN1C(=O)c2c(Cl)c(-c3c(C)noc3C)cc3ccn(c23)CC1C (stereo not shown) [Compound 17]", 7.85),
    ("COc1cc(C)[nH]c(=O)c1CN1CCn2ccc3cc(-c4c(C)nn(CC#N)c4C)c(Cl)c(c32)C1=O [Compound 8]", 5.96),
    ("COc1cc(C)[nH]c(=O)c1CN1CCn2ccc3cc(-c4c(C)nn(CCO)c4C)c(Cl)c(c32)C1=O [Compound 7]", 5.44),
    ("COc1cc(C)[nH]c(=O)c1CN1CCn2ccc3cc(C(OC)C4COC4)c(C)c(c32)C1=O (stereo not shown) [Compound 14]", 7.93),
    ("COc1cc(C)[nH]c(=O)c1CN1CCn2ccc3cc([C@@H](OC)C4COC4)c(Cl)c(c32)C1=O [Compound 11]", 6.25),
    ("COc1cc(C)[nH]c(=O)c1CN1CCn2cc(Cl)c3cc(-c4c(C)cnn4C)c(Cl)c(c32)C1=O [Compound 6]", 5.95),
    ("COc1cc(C)[nH]c(=O)c1CN1CCn2ccc3cc(C(OC)C4COC4)c(Cl)c(c32)C1=O (stereo not shown) [Compound 9]", 7.67),
]

Source: patent US12479846B2
